T½ overview
System: mfPRLR.mmh (monomeric macaca fascicularis PRLR)
Sequence (as listed by the source): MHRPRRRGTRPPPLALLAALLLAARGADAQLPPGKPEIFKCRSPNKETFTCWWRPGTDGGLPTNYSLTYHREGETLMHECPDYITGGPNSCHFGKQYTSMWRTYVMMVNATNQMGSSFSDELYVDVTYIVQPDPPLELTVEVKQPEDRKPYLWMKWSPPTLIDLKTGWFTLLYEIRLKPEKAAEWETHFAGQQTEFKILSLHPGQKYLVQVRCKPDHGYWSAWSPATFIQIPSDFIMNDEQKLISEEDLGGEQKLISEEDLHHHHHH
Assay: Surface plasmon resonance (Biacore T200), mAb-capture format
Assay type: binding
Details: 25° C., antibody-capture format, analyte mfPRLR.mmh
measure.name: T½ (min)

INSERT INTO assay_data (molecule, measure_name, units_text, quantitative_readout) VALUES
  ('H1H6800P: anti-PRLR antibody, human IgG1 Fc; HCVR/LCVR SEQ ID NOs 194/202 (antibody, V domains shown, human IgG1 Fc) VH: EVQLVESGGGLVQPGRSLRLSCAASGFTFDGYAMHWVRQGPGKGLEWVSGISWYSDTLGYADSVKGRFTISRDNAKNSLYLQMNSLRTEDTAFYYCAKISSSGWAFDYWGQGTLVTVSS VL: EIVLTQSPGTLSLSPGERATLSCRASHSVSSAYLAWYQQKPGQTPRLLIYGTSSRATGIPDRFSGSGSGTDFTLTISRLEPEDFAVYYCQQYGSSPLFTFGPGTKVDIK', 'T½', 'min', 30),
  ('H1H6790P: anti-PRLR antibody, human IgG1 Fc; HCVR/LCVR SEQ ID NOs 114/122 (antibody, V domains shown, human IgG1 Fc) VH: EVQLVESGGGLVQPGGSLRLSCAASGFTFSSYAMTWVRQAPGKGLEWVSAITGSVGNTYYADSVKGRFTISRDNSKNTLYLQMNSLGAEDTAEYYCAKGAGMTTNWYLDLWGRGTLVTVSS VL: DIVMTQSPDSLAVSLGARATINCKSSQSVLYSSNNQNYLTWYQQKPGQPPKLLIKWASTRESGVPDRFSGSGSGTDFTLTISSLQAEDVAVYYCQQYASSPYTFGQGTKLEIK', 'T½', 'min', 15),
  ('H1H6976N: human IgG1 Fc form of H2M6976N; anti-PRLR; HCVR/LCVR SEQ ID NOs 386/394 (antibody, V domains shown, human IgG1 Fc) VH: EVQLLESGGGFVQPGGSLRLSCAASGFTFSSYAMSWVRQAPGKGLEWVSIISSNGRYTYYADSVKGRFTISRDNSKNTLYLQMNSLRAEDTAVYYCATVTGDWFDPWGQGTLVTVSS VL: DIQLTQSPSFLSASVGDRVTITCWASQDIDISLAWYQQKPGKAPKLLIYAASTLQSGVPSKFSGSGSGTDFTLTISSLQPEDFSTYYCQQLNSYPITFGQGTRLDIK', 'T½', 'min', 14.2),
  ('H1H6959N2: human IgG1 Fc form of H2M6959N2; anti-PRLR; HCVR/LCVR SEQ ID NOs 306/314 (antibody, V domains shown, human IgG1 Fc) VH: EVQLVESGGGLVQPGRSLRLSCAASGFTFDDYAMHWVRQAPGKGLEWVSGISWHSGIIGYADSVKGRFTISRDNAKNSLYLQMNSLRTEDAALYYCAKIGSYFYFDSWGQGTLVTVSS VL: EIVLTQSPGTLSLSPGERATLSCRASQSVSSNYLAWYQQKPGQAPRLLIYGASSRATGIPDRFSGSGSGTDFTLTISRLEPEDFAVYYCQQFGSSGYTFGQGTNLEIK', 'T½', 'min', 0.7);

meta.source: patent US9688764B2
